Tested on: U-251
experiment description: NCI tumour cell line growth inhibition, 48 h
Active and inactive are the calls of the source. No stated cut-off is given here; in the data, active = GI50 up to about 1.1 µM and inactive = higher.
So I've got a bunch of compounds here, and I need their GI50 values.

### Prompt What value of GI50 has been reported for the following compound? "O=C(O)c1nc2ccc(C(F)(F)F)cc2nc1NCc1ccc(Cl)c(Cl)c1"
### Response 13.8 µM (inactive)

### Prompt What value of GI50 has been reported for the following compound? "CCOC(=O)/C(=C/c1ccccc1)N(CC)CC"
### Response > 100 µM (inactive)

### Prompt What value of GI50 has been reported for the following compound? "COc1cc(-c2ccccc2N)c2cccnc2c1OC"
### Response 4.21 µM (inactive)

### Prompt What value of GI50 has been reported for the following compound? O=C1O[C@H]2[C@H](OC(=O)c3cc(O)c(O)c(O)c3)[C@@H](OC(=O)c3cc(O)c(O)c4c3[C@@H]3C1=CC(=O)C(O)(O)C3(O)O4)[C@H](OC(=O)c1cc(O)c(O)c(O)c1)O[C@@H]2COC(=O)c1cc(O)c(O)c(O)c1 (stereo partly drawn) [TERCHEBIN]
### Response 54.1 µM (inactive)

### Prompt What value of GI50 has been reported for the following compound? "CCOC(=O)C1(C(=O)OCC)OC(C)=NC1(C(=O)OC)C(=O)OC"
### Response > 100 µM (inactive)

### Prompt What value of GI50 has been reported for the following compound? CC1(C)CC2(C)ON=C(c3ccccc3)N2c2ccccc2N1 (stereo not drawn)
### Response 19.8 µM (inactive)

### Prompt What value of GI50 has been reported for the following compound? CNC(=O)CCC(NC(C)=O)C(=O)NC(Cc1ccc(NC(=O)CCCCC(C)=O)cc1)C(=O)NC(CCC(=O)NC)C(=O)NC (stereo not drawn)
### Response > 100 µM (inactive)

### Prompt What value of GI50 has been reported for the following compound? O=C1C(Cl)N(c2ccc(Cl)cc2)C1c1c[nH]c2ccccc12 (stereo not drawn)
### Response 13 µM (inactive)
